The measurements presented in this section are drawn from PubChem BioAssay AID1159580.

Experiment: chemical genetic growth profiling, strain panel (AID 1159580);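 also: tested at 20 µM; growth read once vehicle control cultures reached saturation at 30 °C; 1 = growth at the plate median or of vehicle wells; lower values mean less growth of the strain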
Details: S. cerevisiae deletion strains, growth OD, locus YLL026W
The campaign covered roughly 5,500 compounds. About 2,000 (36%) were called active. Roughly 18% stayed inconclusive and do not appear here. Rule as the data show it: active = normalized growth mostly below about 0.91 (no sharp cut-off); inconclusive = no clear call, values can overlap the other calls; inactive = mostly above about 0.92. The list shows a part of the results.
Outcome field: choose from 1 (yes) (active), 0 (no) (inactive)

Past entries and their recorded results:
compound	group_label
Cc1cc(C(C)(C)C)c(O)c(C(C)(C)C)c1	0 (no)
FC(F)(F)c1ccccc1-n1ccnc1	0 (no)
CC1OC(=O)C(C(C)C)NC(=O)C(C(C)C)OC(=O)C(C(C)C)NC(=O)C(C)OC(=O)C(C(C)C)NC(=O)C(C(C)C)OC(=O)C(C(C)C)NC(=O)C(C)OC(=O)C(C(C)C)NC(=O)C(C(C)C)OC(=O)C(C(C)C)NC1=O (stereo not given)	1 (yes)
Cc1ccc(S(=O)(=O)NC(=O)NN2CC3CCCC3C2)cc1 (stereo not given)	0 (no)

Turning now to a further record.
Prompt line: Assay result, entry `O=c1[nH]cc(F)c(=O)[nH]1` — outcome?
Response line: 1 (yes)

----------
Assay: chemical genetic growth profiling, strain panel (AID 1159580);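 also: tested at 20 µM; growth read once vehicle control cultures reached saturation at 30 °C; 1 = growth at the plate median or of vehicle wells; lower values mean less growth of the strain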
Conditions: S. cerevisiae deletion strains, growth OD, locus YIL125W, strain kgd1
Screen size: about 5,500 compounds; about 2,000 (36%) were called active. Not shown: some 18% with an inconclusive outcome. No stated cut-off is given here; in the data, active means normalized growth mostly below about 0.91 (no sharp cut-off); inconclusive means no clear call, values can overlap the other calls; inactive means mostly above about 0.92. The list shows a part of the results.
Outcome field: choose from label 1 (active), label 0 (inactive)

Past entries and their recorded results:
>>> print(df.to_string())
                                   compound  group_label
0  C#C[C@]1(O)CCC2C3CCC4=CC(=O)CC[C@@H]4C3CC[C@@]21C (stereo not given in full)      label 0
1  CC(=O)NCc1c(I)c(NC(C)=O)c(I)c(C(=O)O)c1I      label 0

Prompt line: Assay result, entry `C[C@@H]1CC[C@H]2[C@@H](C)C(=O)O[C@@H]3O[C@@]4(C)CC[C@@H]1[C@]32OO4` — outcome?
Response line: label 1

Prompt line: Assay result, entry CO[C@@]12[C@@H]3NC3CN1C1=C(C(=O)C(N)=C(C)C1=O)[C@@H]2COC(N)=O (stereo not given in full) — outcome?
Response line: label 0

Prompt line: Assay result, entry CC(C)CC(N(C)C)C1(c2ccc(Cl)cc2)CCC1 (stereo not given) — outcome?
Response line: label 0

----------
Assay: chemical genetic growth profiling, strain panel (AID 1159580);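 also: tested at 20 µM; growth read once vehicle control cultures reached saturation at 30 °C; 1 = growth at the plate median or of vehicle wells; lower values mean less growth of the strain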
Settings: S. cerevisiae deletion strains, growth OD, locus YMR001C, strain CDC5, hits give low values
In all, about 5,500 compounds went through this assay and about 2,000 (36%) were called active. Not shown: some 18% with an inconclusive outcome. The list shows a part of the results.
quantity_measured: normalized growth
Answers are plain numbers.

# map each compound to its normalized growth
1. CC(C)Cc1ccc(C(C)C(=O)Nc2nn(C)c3ccccc23)cc1 (centres undefined)
2. O=C(Nc1ccccc1Sc1ccc([N+](=O)[O-])cc1[N+](=O)[O-])C(Cl)(Cl)Cl
3. Fc1ccc(NC(=S)N2CCCN(Cc3ccc(Cl)cc3Cl)CC2)cc1
4. Cc1nc(-c2ccccn2)nc(N(C)Cc2ccccc2)c1Cl

Response line:
1. 0.973
2. 0.975
3. 0.992
4. 0.956

----------
Assay: chemical genetic growth profiling, strain panel (AID 1159580);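 also: tested at 20 µM; growth read once vehicle control cultures reached saturation at 30 °C; 1 = growth at the plate median or of vehicle wells; lower values mean less growth of the strain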
Conditions: S. cerevisiae deletion strains, growth OD, locus YOR083W, strain WHI5 (second series), hits give low values
In all, about 5,500 compounds went through this assay and about 2,000 (36%) were called active. Not shown: some 18% with an inconclusive outcome. The list shows a part of the results.
quantity_measured: normalized growth
One number for each entry.

# example entries with known answers
In [3]: df
Out[3]:
                                   molecule  experimental_result
0  Oc1ccc2c3c1O[C@H]1[C@@H](O)CC[C@@]4(O)C(C2)N(CC2CCC2)CCC314 (stereo not given in full)                0.984
1                   NCCc1ccc(S(=O)(=O)F)cc1                0.997
2  CC(C)(C=O)Cc1cc(C(C)(C)C)c(O)c(C(C)(C)C)c1                 1.01
3  CN1C2CCC1CC(NC(=O)c1nn(C)c3ccccc13)C2 (stereo not given)                 1.02
4  CC(=O)[C@]1(O)Cc2c(O)c3c(c(O)c2[C@@H](O[C@H]2C[C@H](N)[C@H](O)[C@H](C)O2)C1)C(=O)c1ccccc1C3=O                0.178

# map each molecule to its normalized growth
1. CN=c1nc(-c2ccccc2)n(-c2ccccc2)s1
2. COc1cc(-c2ccc(=O)[nH]n2)ccc1OC(F)F
3. CC(N)C1CCC(C(=O)Nc2ccncc2)CC1 (stereo not given)

Response line:
1: 0.961; 2: 1.02; 3: 1.05

# map each molecule to its normalized growth
1. C[C@@H](N)Cc1cnc[nH]1
2. NCC1OC(O[C@@H]2[C@H](O)C(OC3C(O)C(N)CC(N)C3OC3OC(CO)C(O)C(O)C3N)O[C@@H]2CO)C(N)C(O)C1O (stereo not given in full)

Response line:
1: 1.04; 2: 1.02
